Experiment: yeast display, Sf9 membrane polyspecificity reagent, FACS + sequencing; frameworks hold sequencing errors
OBSERVABLE: polyreactivity (PSR sort gate)

{"columns": ["SEQ_STRING", "polyreactivity (PSR sort gate)"],
 "data": [
  ["QVQLVESGGRLVQAGGSLRLSCAASGSIISWYAMGWYRQAPGKERELVAAISNSGGSTYYADSVKGRFTISRDNAKNTVYLQMNSLKPEDTAVYYCAAYDGDTYDWGQGTQVTVSS", "high polyreactivity"],
  ["QGQLVESGGGLVQAGGSLRLSCAASGLTFKGYAMGWYRQAPGKERELVAAITWDTGSTYYADSVKGRFTISRDNAKNTVYLQMNSLKPEDTAVYYCAAVGSTTTGVRRRGYWGQGTQVTVSS", "high polyreactivity"],
  ["QVQLVESGGGLVQAGGSLRLSCAASGSIFYVYAMGWYRQAPGKEREFVASIRTSGSSTYADSVKGRFTISRDNAKNTVYLQMNSLKPEDTAVYYCAAGSITVFWKRTGYRWRGYDYWGQGTQVTVSS", "low polyreactivity"],
  ["QVQLVESGGGLVQAGGSLRLSCAASALTFQAYTMGWYRQAPGKERELDAAISRNGGRTYYADSVKGRFTISRDNAKNTVYLQMNSLKPEDTAVYYCAAVHFVVSPGRGDDYWGQCTQVTVSS", "high polyreactivity"],
  ["QVQLVESGGGLVQAGGSLRLSCAASGSIFGTYAMGWYRQAPGKERELVAAITGSGGRTYYADSVKGRFTISRDNAKNTVYLQMNSLKPEDTAVYYCNKVVYVRSYPPRYDYWGQGTQVSVSS", "high polyreactivity"],
  ["QVQLVESGGGLVQAGRSLRLSCAASGLTFSLYAMGWSRQAPGKERELVAANSWTGGSTYYADSVKGRFTISRDNAKNTVYLQMNSLKPEDTAVYYCNARYTLFARYGYDYWGQGTQVTVSS", "low polyreactivity"]
]}

For every item in the list below, what is its measured polyreactivity (PSR sort gate)?
1. QVQLVESGGGLVQAGGSLSLSCAASGRTLYLYTMGWYRQAPGKERELVASINWRGSTYYADSVKGRFTISRDNAKNTVYLQMNSLKPEDTAVYYCNVGGPSGGMYYWGQGTQVTVSS
2. QVQLVESGGGLVQAGGSLRLSCAASGSIFDYNTMGWYSQAPGKERELVAAISSGGSTYYADSVKGRFTISRDNAKTTVYLQMKSLKPEDTAVYYCAARRAGWWGFYYWGQGTQVTVSS
3. QVQLVESGGGLVQAGGSLRLSCAASGSTFWRYAMGWYRQAPGKERELVAAITRRGSSTYYADSVKGRFTISRDNAKNTVVLQMNSLKPEDTAVYYCAAPGYVRTGVTYGGYYWGQGTQVTVSS
4. QVQLVDSGGGLVQAGGSLRLSCAASGFIFDINAMGWYRQAPGKERELVAAISYSGGSTYYADSVKGRFTISRDNAKNTVYLQMNSLKPEDTAVYYCAADCGPDSDEGDYWGQGTQVTVSS
5. QVQLVESGGGLVQAGGSLRLSCAASGSIFYGYAMGWYRQAPGKERELVAAISFSGGSTHYADSVKGRFTISRDNAKNTVYLQMNSLKPEDTAVYYCATDSGTPGDDEYWGQGTQVTVSS

1: low polyreactivity; 2: high polyreactivity; 3: high polyreactivity; 4: low polyreactivity; 5: low polyreactivity

* * *

Assay: yeast display, Sf9 membrane polyspecificity reagent, FACS + sequencing; frameworks hold sequencing errors
OBSERVABLE: polyreactivity (PSR sort gate)

Observe how each entry below is paired with its result.
{"columns": ["SEQ_STRING", "polyreactivity (PSR sort gate)"],
 "data": [
  ["QVRLVESGGGLVQAGGSLRLSCAASGRIFQYYSMGWYRQAPGKERELVASITSGGGSTYYADSVKGRFTISRDNAKNTVYLQMNSLKPEDTAVYYCNARWYGLSTRYDYWGQGTQVTVSS", "low polyreactivity"],
  ["QVQLVESGGGLVQAGGSLRLSCAASGYYAMGWYRQAPGKERELVPAITWSGGTTYYADSVKGRFTISRDNAKNTVYLQMNSLKPEDTAVYYCNADFVRYTRHKKYYYWGQGTQVTVSS", "low polyreactivity"],
  ["QVQLVESGGGLVQAGGSLRLSCAASGIILGVYAMGWYRQAPGKEREFVAAITSSGGSTYYADSVKGRFTISRDNAKNTVYLQMNSLKPEDTAVYYCAADFDTSVRLYGPTRYDYWGQGTQVTVSS", "low polyreactivity"],
  ["QVQLVESRGGLVQAGGSLRLSCAASGTTINFYPMGWYRQAPGKERELVAAIRVSSGSTYYADSVKGRFTISRDNAKNNVYLQMNSLKPEDTAVYYCAAFLKDRSPRDGYDYWGQGSQVTVSS", "high polyreactivity"]
]}

The recorded polyreactivity (PSR sort gate) for `QVQLVESGGGLVQAGGSLRLSCAASGSIFRNYAMGWSRQAPGKERELVAAINWNGGSTYYADSVKGRFTISRDNAKNTVYLQMNSLKPEDTAVYYCAARSSKFVTSNRYDYWGQGTQVTVSS` is high polyreactivity

* * *

Assay: yeast display, Sf9 membrane polyspecificity reagent, FACS + sequencing; frameworks hold sequencing errors
OBSERVABLE: polyreactivity (PSR sort gate)

Observe how each entry below is paired with its result.
{"columns": ["SEQ_STRING", "OBSERVABLE", "OBS_VALUE"],
 "data": [
  ["QVQLQESGGGLVQAGGSLRLSCAASGYISLAQTIGWYRQAPGKEREFVASIALGSRTYYTDSVKGSFTISRDNAKTTVYLQMNSLKAEDTAVYYCAARVGASYAHDYWGQGTQVTVSS", "polyreactivity (PSR sort gate)", "low polyreactivity"],
  ["QVQLVESGGGLVQAGGSLRLSCAASGRIFPVNAMGWYRQAPGKERELVATISSGDITNYADSVKGRFTISRDNAKNTVYLQMNSLKPEDTAVYYCAADYTWRAWTYYGIKYNYWGQGTQVTVSS", "polyreactivity (PSR sort gate)", "low polyreactivity"],
  ["QVQLVESGGGLVQAGGSLRLSCAASGFTFTRYAMGWYRQAPGKERELVAAITTNSGSRTYYADSVKGRFTISRDNAKNTVYLQMNSLKPEDTAVYYCAADGPVVRGYYWGQGTQVTVSS", "polyreactivity (PSR sort gate)", "high polyreactivity"],
  ["QVQLVESGGGLVQAGGSLRLSCAASGLTFWYYAMGWYRQAPGKERELVAAITISGGSTYYADSVKGRFTISRDNAKNTVYLQMNRLQPEDTAVYYCAKTFSYTGRYWGYDYWGKGTQVTVSS", "polyreactivity (PSR sort gate)", "high polyreactivity"]
]}

The recorded polyreactivity (PSR sort gate) for `QVQLVESGGGLVQAGGSLRLSCAASGFIFYSNAMGWYRPAPGKERELVAAISWGGGRTYYADSVKGRFTISRDNAKNTVYLQMNSLKPEDTAVYYCAAAGYHSGKGGGYWGQGTQVTVSS` is high polyreactivity

* * *

Experiment: yeast display, Sf9 membrane polyspecificity reagent, FACS + sequencing; frameworks hold sequencing errors
OBSERVABLE: polyreactivity (PSR sort gate)

Observe how each entry below is paired with its result.
{"columns": ["SEQ_STRING", "polyreactivity (PSR sort gate)"],
 "data": [
  ["QDQLVDSGGCLVQAGGSLSLSCAASGNTFNIYAMGWYRQAPGKEREFVAAITVSDTSTYYADSVKGRFTISRDNAKNTVYLKMHSLKPEDTSVYYCNADWWCTYDYYYWGQGTQGTVSS", "low polyreactivity"],
  ["QVQLVESGGGLVQAGGSLRLSCAAYGSTFRYNPLGWYRQAPGKETELVAANTSGGGTNSADSVKGRFTISRDNAKNTVYLQMNSLKPEDTAVYYCAAPWGLGSELLKRDYWGQGTQVTVSS", "low polyreactivity"],
  ["QVQLVESGGGLVQAGGSIRLICAASGPIFSSYAIGCYRQAPGKERELVAAITSSGTSTYYADSVKGRFTISRDYAKNTVYVQMTSLKPEDTAVYYCAARRARTGDYWGQGTQVTLSS", "high polyreactivity"],
  ["QVQLVESGGGLVQAGGSLRLSCAASGITFSSYVMGWYRQAPGKERELDAAISRSGGITYYADSVKGRFTISRDNAKNTVYLQMNSLKPEDTAVYYCAVRYYIYRPGGYDYWGQGTQVTVSS", "high polyreactivity"],
  ["QVQLVESGGGLVQAGGSLRLSCAASGSTFQANTMGWYRQAPGKERELVAAISIRGANTYYADSVKGRFTISRDNAKNTVYLQMNSLKPEDTAVYYCATRVRKYSLRLDYWGQGTQVTVSS", "high polyreactivity"]
]}

For every item in the list below, what is its measured polyreactivity (PSR sort gate)?
1. QVQLVESGGGLIQAGGSLRLSCAASGSNFRYYALGWYRQAPGKESELVAAISQSGGSTHYAESVKGRFTISRDNAKITVYLQMNSLKAEDTAVYYCAKHWGPGTQVTVSS
2. QVQLVESGGGLVQAGGSLRLSCAPSGITFFWKAKGWYRQAPGKERELVAAISSGAGTTYADSVKGRFTISRDNAKNTVYLQMNSLKPEDTAVYFCAARRYRYAYGPYNYWGQGSQVTVSS
3. QVQLVESGGGLVQAGGSLRLSCAASGNIFEYYAMGWYRQAPGKERELVATITSGGSTNYADSVKGRFTISRDNAKNTVYLQMNSLKPEDTAVYYCNADIISVSVYYFIVEYDYWGQGTQVTVSS
4. QVQLVESGGGLVQAGGSLRLSCAASGFIFDYYAMGWYRQAPGKERELVAVINQSGTSTYYADSVKGRFTISRDNAKNTVYLQMNSLKPEDTAVYYCSVDYGTPVYWDEMYYWGQGTQVTVSS
5. QVQLVESGGGLVQAGGSLRLSCAASGFIFRYYAMAWYRQAPGKERELVASISRRGGSTYYADSVKGRFTISRDNSKNTFYLQMIRLIPEDTAVYYCAADVVNTVYYPGYDYLGQGTQVTVSS

["low polyreactivity", "low polyreactivity", "low polyreactivity", "low polyreactivity", "high polyreactivity"]
